experiment summary: acute toxicity (DL50 / LD50)
applied conditions: mouse, in vivo
readout type: LD50

Examples with their reported LD50 follow.
compound | LD50
CC(C)C(=O)c1cc(C(C)C(=O)O)cs1 (stereo not shown) [LMC-V] | ~1500 mg/kg
CC(C(=O)O)c1csc(C(=O)c2ccccc2)c1 (stereo not shown) [LMC-I, 2-(5'-benzoyl-3'-thienyl)propionic acid] | ~400 mg/kg
CC(C(=O)O)c1csc(Cc2ccccc2)c1 (stereo not shown) [LMC-VII, 2-(5'-benzyl-3'-thienyl)propionic acid] | ~1500 mg/kg

Query string: Report LD50 for CC(C(=O)O)c1csc(C(=O)c2ccc(Cl)cc2)c1 (stereo not shown) [LMC-II] please.
Result string: ~1200 mg/kg

Query string: Recorded LD50 for CC(C)Cc1cc(C(C)C(=O)O)cs1 (stereo not shown) [LMC-VI] , please?
Result string: > 1000 mg/kg

Query string: Look at this compound and give its reported LD50. CC(C(=O)O)c1csc(C(=O)c2ccc(Cl)cc2Cl)c1 (stereo not shown) [LMC-III]
Result string: ~1000 mg/kg

Query string: If you can, please state the reported LD50 value of Cc1ccc(C(=O)c2cc(C(C)C(=O)O)cs2)cc1 (stereo not shown) [LMC-IV] .
Result string: ~1200 mg/kg

Attribution: patent US4690945A
